test system: Staphylococcus aureus; test: Antimicrobial activity against Staphylococcus aureus ATCC 49951 infected in CD1 mouse systemic infection model dosed intravenously 1 and 5 hrs after inoculation; format: functional; conditions: ATCC 49951, iv
Record form. Attribute: ED50. Fill in for each entry.
Give bare numbers, in mg/kg.

Data request: Return ED50 (reported value) for this molecule: CN[C@H](CC(C)C)C(=O)N[C@H]1C(=O)N[C@@H](CC(N)=O)C(=O)N[C@H]2C(=O)N[C@H]3C(=O)N[C@H](C(=O)N[C@H](C(=O)O)c4cc(O)cc(O)c4-c4cc3ccc4O)[C@H](O)c3ccc(c(Cl)c3)Oc3cc2cc(c3O[C@@H]2O[C@H](CO)[C@@H](O)[C@H](O)[C@H]2O[C@H]2C[C@](C)(N)[C@H](O)[C@H](C)O2)Oc2ccc(cc2Cl)[C@H]1O
Data returned: 1.1

Data request: Please list ED50 recorded for the molecule Cc1sc2nc1C(=O)N[C@@H]([C@H](O)c1ccccc1)c1nc(cs1)C(=O)N[C@@H](Cc1ccc(O)cc1)C(=O)NCC(=O)N1C[C@H](O)[C@H](C)[C@H]1c1nc(cs1)-c1nc(cs1)-c1nc(-c3nc(C(=O)N[C@H]4CC[C@H](C(=O)O)CC4)cs3)ccc1-c1nc(cs1)C(=O)N[C@H]2CC(N)=O
Data returned: 3.42

Data request: For CCCCCCCCCC(=O)N[C@@H](Cc1c[nH]c2ccccc12)C(=O)N[C@H](CC(N)=O)C(=O)N[C@@H](CC(=O)O)C(=O)N[C@@H]1C(=O)NCC(=O)N[C@@H](CCCN)C(=O)N[C@@H](CC(=O)O)C(=O)N[C@H](C)C(=O)N[C@@H](CC(=O)O)C(=O)NCC(=O)N[C@H](CO)C(=O)N[C@@H]([C@H](C)CC(=O)O)C(=O)N[C@@H](CC(=O)c2ccccc2N)C(=O)O[C@@H]1C , write its ED50.
Data returned: 0.21

Then this molecule:
Data request: Assign ED50 to the following record: Cc1sc2nc1C(=O)N[C@@H]([C@H](O)c1ccccc1)c1nc(cs1)C(=O)N[C@@H](Cc1ccc(O)cc1)C(=O)NCC(=O)N1C[C@H](O)[C@H](C)[C@H]1c1nc(cs1)-c1nc(cs1)-c1nc(-c3nc(C(N)=O)cs3)ccc1-c1nc(cs1)C(=O)N[C@H]2CC(N)=O
Data returned: 8

* * *

assay: AUC in Sprague-Dawley rat at 1 mg/kg, iv by LC-MS/MS method; format: ADME, organism-based; conditions: in vivo
observation type: AUC (µM·h)
One number for each entry, in µM·h.

Data request: Return the recorded AUC value; entry: Cc1sc2nc1C(=O)N[C@@H]([C@H](O)c1ccccc1)c1nc(cs1)C(=O)N[C@@H](Cc1ccc(O)cc1)C(=O)NCC(=O)N1C[C@H](O)[C@H](C)[C@H]1c1nc(cs1)-c1nc(cs1)-c1nc(-c3nc(C(=O)N[C@H]4CC[C@H](C(=O)O)CC4)cs3)ccc1-c1nc(cs1)C(=O)N[C@H]2CC(N)=O
Data returned: 13.2

* * *

test system: Staphylococcus aureus; test: Antimicrobial activity against methicillin-resistant Staphylococcus aureus by broth microdilution method; assay type: functional
Task for the reader: assign each of the following molecules its reported MIC.
Give bare numbers, in µg/mL.

Data request: Tell me measured MIC for Cc1sc2nc1C(=O)N[C@@H]([C@H](O)c1ccccc1)c1nc(cs1)C(=O)N[C@@H](Cc1ccc(O)cc1)C(=O)NCC(=O)N1C[C@H](O)[C@H](C)[C@H]1c1nc(cs1)-c1nc(cs1)-c1nc(-c3nc(NC(=O)O[C@H]4CC[C@H](C(=O)O)CC4)cs3)ccc1-c1nc(cs1)C(=O)N[C@H]2CC(N)=O please.
Data returned: 0.25

Data request: Return reported MIC. Input molecule: Cc1sc2nc1C(=O)N[C@@H]([C@H](O)c1ccccc1)c1nc(cs1)C(=O)N[C@@H](Cc1ccc(O)cc1)C(=O)NCC(=O)N1C[C@H](O)[C@H](C)[C@H]1c1nc(cs1)-c1nc(cs1)-c1nc(-c3nc(C(=O)O)cs3)ccc1-c1nc(cs1)C(=O)N[C@H]2CC(N)=O
Data returned: 2

Further cases:
Data request: Note MIC for the molecule shown: Cc1sc2nc1C(=O)N[C@@H]([C@H](O)c1ccccc1)c1nc(cs1)C(=O)N[C@@H](Cc1ccc(O)cc1)C(=O)NCC(=O)N1C[C@H](O)[C@H](C)[C@H]1c1nc(cs1)-c1nc(cs1)-c1nc(-c3nc(N(CCCCC(=O)O)C(=O)O[C@H]4CC[C@H](C(=O)O)CC4)cs3)ccc1-c1nc(cs1)C(=O)N[C@H]2CC(N)=O
Data returned: 0.25

* * *

assay: Clearance in Sprague-Dawley rat at 1 mg/kg, iv by LC-MS/MS method; type: ADME, organism-based; settings: in vivo
observation type: clearance (mL/min/kg)
Give bare numbers, in mL/min/kg.

Data request: Return clearance for the following compound: Cc1sc2nc1C(=O)N[C@@H]([C@H](O)c1ccccc1)c1nc(cs1)C(=O)N[C@@H](Cc1ccc(O)cc1)C(=O)NCC(=O)N1C[C@H](O)[C@H](C)[C@H]1c1nc(cs1)-c1nc(cs1)-c1nc(-c3nc(C(=O)N[C@H]4CC[C@H](C(=O)O)CC4)cs3)ccc1-c1nc(cs1)C(=O)N[C@H]2CC(N)=O
Data returned: 0.98

* * *

test: Aqueous solubility of the compound at 20 mg/ml after 24 hrs RP-HPLC based shake flask method; type: physicochemical; conditions: aqueous medium
Quick rule for you: solubility thermodynamic at 24 h at 700 µg/mL or higher means satisfied, lower means not satisfied.

Solved cases below.
Data request: Determine whether this compound has solubility thermodynamic at 24 h no lower than 700 µg/mL: Cc1sc2nc1C(=O)N[C@@H]([C@H](O)c1ccccc1)c1nc(cs1)C(=O)N[C@@H](Cc1ccc(O)cc1)C(=O)NCC(=O)N1C[C@H](O)[C@H](C)[C@H]1c1nc(cs1)-c1nc(cs1)-c1nc(-c3nc(NC(=O)O[C@H]4CC[C@H](C(=O)O)CC4)cs3)ccc1-c1nc(cs1)C(=O)N[C@H]2CC(N)=O
Data returned: not satisfied

Data request: Hi team, for Cc1sc2nc1C(=O)N[C@@H]([C@H](O)c1ccccc1)c1nc(cs1)C(=O)N[C@@H](Cc1ccc(O)cc1)C(=O)NCC(=O)N1C[C@H](O)[C@H](C)[C@H]1c1nc(cs1)-c1nc(cs1)-c1nc(-c3nc(C(=O)N[C@H]4CC[C@H](C(=O)O)CC4)cs3)ccc1-c1nc(cs1)C(=O)N[C@H]2CC(N)=O , is the recorded solubility thermodynamic at 24 h at or above 700 µg/mL?
Data returned: satisfied

Data request: API: above_or_equal(metric=solubility thermodynamic at 24 h, cutoff=700 µg/mL) for item Cc1sc2nc1C(=O)N[C@@H]([C@H](O)c1ccccc1)c1nc(cs1)C(=O)N[C@@H](Cc1ccc(O)cc1)C(=O)NCC(=O)N1C[C@H](O)[C@H](C)[C@H]1c1nc(cs1)-c1nc(cs1)-c1nc(-c3nc(C(=O)O)cs3)ccc1-c1nc(cs1)C(=O)N[C@H]2CC(N)=O
Data returned: not satisfied

Data request: Is the recorded value of solubility thermodynamic at 24 h equal to or greater than 700 µg/mL for this compound? Cc1sc2nc1C(=O)N[C@@H]([C@H](O)c1ccccc1)c1nc(cs1)C(=O)N[C@@H](Cc1ccc(O)cc1)C(=O)NCC(=O)N1C[C@H](O)[C@H](C)[C@H]1c1nc(cs1)-c1nc(cs1)-c1nc(-c3nc(C(=O)NCCCCC(=O)O)cs3)ccc1-c1nc(cs1)C(=O)N[C@H]2CC(N)=O
Data returned: satisfied

Data request: Say whether Cc1sc2nc1C(=O)N[C@@H]([C@H](O)c1ccccc1)c1nc(cs1)C(=O)N[C@@H](Cc1ccc(O)cc1)C(=O)NCC(=O)N1C[C@H](O)[C@H](C)[C@H]1c1nc(cs1)-c1nc(cs1)-c1nc(-c3nc(N(CCCCC(=O)O)C(=O)O[C@H]4CC[C@H](C(=O)O)CC4)cs3)ccc1-c1nc(cs1)C(=O)N[C@H]2CC(N)=O shows solubility thermodynamic at 24 h of 700 µg/mL or more.
Data returned: satisfied

In the following, a different compound is considered.
Data request: Identify whether the reported solubility thermodynamic at 24 h of the following compound is 700 µg/mL or greater: Cc1sc2nc1C(=O)N[C@@H]([C@H](O)c1ccccc1)c1nc(cs1)C(=O)N[C@@H](Cc1ccc(O)cc1)C(=O)NCC(=O)N1C[C@H](O)[C@H](C)[C@H]1c1nc(cs1)-c1nc(cs1)-c1nc(-c3nc(C(=O)N(CCCCC(=O)O)[C@H]4CC[C@H](C(=O)O)CC4)cs3)ccc1-c1nc(cs1)C(=O)N[C@H]2CC(N)=O
Data returned: satisfied
